meta.source: the supplement of paper PMC13380429

tested on: Vero E6 infected with SARS-CoV-2; experiment: inhibition of SARS-CoV-2 cytopathic effect; higher = more antiviral protection, active = above 15; conditions: 10000 nM; 48 h
property-name: inhibition of SARS-CoV-2 cytopathic effect (%)
Provide only the numeric value, understood in %.

GET /values?readout=inhibition of SARS-CoV-2 cytopathic effect&item= CSCC1CN(/N=C/c2ccc([N+](=O)[O-])o2)C(=O)O1 (configuration not stated)
0.52

Look up inhibition of SARS-CoV-2 cytopathic effect for this molecule: Nc1nccc(-c2c(-c3ccc(F)cc3)ncn2C2CCCCC2)n1
1.35

# lookup: inhibition of SARS-CoV-2 cytopathic effect of COc1ccc2cc(OCC3(C(=O)O)CN(C(=O)c4ccc(F)cc4)C3)ccc2c1
1.77

Fill in the blank: the reported inhibition of SARS-CoV-2 cytopathic effect of CCC1=C[C@@H]2CN(C1)Cc1c([nH]c3ccccc13)[C@@](C(=O)OC)(c1cc3c(cc1OC)N(C)[C@H]1[C@@](O)(C(=O)OC)[C@H](OC(C)=O)[C@]4(CC)C=CCN5CC[C@]31[C@@H]54)C2 is ____.
-3.81

Please look up its inhibition of SARS-CoV-2 cytopathic effect: CCCCCCCCc1ccc(CCC(N)(CO)CO)cc1
15.2

What inhibition of SARS-CoV-2 cytopathic effect value was documented for this molecule, Cc1[nH]c2ccc(F)cc2c1-c1nc2c3cccnc3c3ncccc3c2[nH]1 ?
2.7

Would you kindly share the measured inhibition of SARS-CoV-2 cytopathic effect for Oc1cccc(-c2c3nc(c(-c4cccc(O)c4)c4ccc([nH]4)c(-c4cccc(O)c4)c4nc(c(-c5cccc(O)c5)c5ccc2[nH]5)CC4)C=C3)c1 ?
-5.99

Could you share which inhibition of SARS-CoV-2 cytopathic effect value was measured for CC(OC(=O)NCC1(CC(=O)O)CCCCC1)OC(=O)C(C)C (configuration not stated) ?
-8.44

So what's the measured inhibition of SARS-CoV-2 cytopathic effect for this one? CC(=O)O[C@]1(C(C)=O)CC[C@H]2[C@@H]3C=C(C)C4=CC(=O)CC[C@]4(C)[C@H]3CC[C@@]21C [megestrol-acetate]
0.33

What measured inhibition of SARS-CoV-2 cytopathic effect goes with O=C(/C=C/c1ccc(O)c(O)c1)OCCc1ccccc1 ?
7.5

What value of inhibition of SARS-CoV-2 cytopathic effect has been recorded for this entry: C[C@H](N[C@@H](CCc1ccccc1)C(=O)O)C(=O)N1Cc2ccccc2C[C@H]1C(=O)O
0.11

Record request: inhibition of SARS-CoV-2 cytopathic effect value, item CNC(=O)CN(CCN(CCN(CC(=O)[O-])CC(=O)NC)CC(=O)[O-])CC(=O)[O-].[Gd+3] [gadodiamide]
1.36

Fill blank: measured inhibition of SARS-CoV-2 cytopathic effect of the molecule CC(C)Cc1ccc(C(C)C(=O)O)cc1 (configuration not stated) is ____.
-0.35

Look up inhibition of SARS-CoV-2 cytopathic effect: Clc1cccc(Cl)c1NC1=NCCN1
-5.58

GET /values?readout=inhibition of SARS-CoV-2 cytopathic effect&item= [NH-]c1c[n+](N2CCOCC2)no1
1.99

Need inhibition of SARS-CoV-2 cytopathic effect of CCO[C@@H](Cc1ccc(OCCn2c(C)ccc2-c2ccc(SC)cc2)cc1)C(=O)O , thanks.
1.31

Item CC(C(=O)O)c1ccc(CC2CCCC2=O)cc1 (configuration not stated) has what recorded inhibition of SARS-CoV-2 cytopathic effect?
2.16
